Property: koff; scope: individual binders
# Measured on: cynomolgus monkey EpoR (cynoEpoR) (cynomolgus monkey)
# Sequence (chain, as listed by the source): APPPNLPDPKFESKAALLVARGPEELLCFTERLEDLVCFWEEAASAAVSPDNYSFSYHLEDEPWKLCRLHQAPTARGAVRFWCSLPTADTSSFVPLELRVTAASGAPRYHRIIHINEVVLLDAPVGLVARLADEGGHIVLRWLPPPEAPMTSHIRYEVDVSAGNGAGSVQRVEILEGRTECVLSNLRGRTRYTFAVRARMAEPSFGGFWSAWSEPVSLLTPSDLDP
# Procedure text: SPR, Biacore T100; scFv-Fc captured by anti-human IgG Fc on CM5 chip, EpoR as analyte
The reply should contain only the number, in s⁻¹.

>  <Binder>
clone 16 scFv-Fc protein (Fc fusion, part only; not given: scFv linker and IgG1 Fc, not shown: a dimerising Fc or GST) scFv, part: QVQLQESGPGLVKPSETLSLTCTVSGGYINNYYWSWIRQPPGKGLEWIGYIHYSGSTYYNPSLKSRVTISEDTSKNQFSLKLSSATAADTAVYYCARVGYYYDSSGYNLAWYFDLWGRGTLVTVSASSELTQDPAVSVALGQTVRITCQGDNLRSYSATWYQQKPGQAPVLVLFGENNRPSGIPDRFSGSKSGDTAVLTITGTQTQDEADYYCTSRVNSGNHLGVFGPGTQLTVL

>  <koff [s⁻¹]>
0.283

$$$$

Reported koff ( clone 330 scFv-Fc protein (Fc fusion, part only; not given: scFv linker and IgG1 Fc, not shown: a dimerising Fc or GST) scFv, part: EVQLVESGGGLVQPGGSLRLSCAVSGFTFSKYWMTWVRQAPGKGLEWVANIKPDGSEKYYVESVKGRFTISRDNAKNSVYLQMNSVRAEDTAVYYCARVSRGGSFSDWGQGTLVTVSSQSALTQPPSASGSPGQSVTISCTGTSSDVGAYNYVSWYQQHPGKAPKLMIYEVARRPSGVPDRFSGSKSGNTASLTVSGLQAEDEADYYCSSYAGSNNFAVFGRGTKLTVL ) = 0.0965

# koff (binder: clone 15 scFv-Fc protein (Fc fusion, part only; not given: scFv linker and IgG1 Fc, not shown: a dimerising Fc or GST) scFv, part: QVQLQESGPGLVRPSGTLSLTCAVSGGSIGSSNWWSWVRQAPGKGLEWIGEISQSGSTNYNPSLKGRVTISLDRSRNQLSLKLSSVTAADTAVYYCARQLRSIDAFDIWGPGTTVTVSASYVLTQPPSVSVSPGLTATITCSGDKLGDKYASWYQQKPGQSPVLVIYQDRKRPSGIPERFSGSNSGNTATLTISGTQAVDEADYYCQAWDSDTSYVFGTGTQLTVL ) is 0.115
